Listed compounds paired with reported mortality at 96 h, 23 ppm
# method.summary: Toxicity against Oreochromis sp. under laboratory conditions assessed as mortality at 23 ppm measured after 96 hr
# Type: organism-based
# settings: in vivo
Answer with the number, then the unit.

[
  {
    "smiles.string": "CC1(C)CC[C@]2(C(=O)O)CC[C@]3(C)C(=CC[C@@H]4[C@@]5(C)CC[C@H](O)C(C)(C)[C@@H]5CC[C@]43C)[C@@H]2C1",
    "reported.result": "0%"
  }
]

Now let's try a different one.
Entry CC1(C)CC[C@]2(C(=O)O)CC[C@]3(C)C(=CC[C@@H]4[C@@]5(C)CC[C@H](O)[C@@](C)(CO)[C@@H]5CC[C@]43C)[C@@H]2C1 has what mortality at 96 h, 23 ppm?
0%

Numbers sourced from ChEMBL document CHEMBL3045910.
